Test system: MCF10A
Run Description: one-nucleolus phenotype percent effect (relative to siNT 0% and siNOL11 100%); higher = more cells with one nucleolus (ribosome biogenesis inhibition)
Measurement Context: 20 nM; 72 h
Measured one-nucleolus phenotype percent effect values are reported for all entries that follow.
API: value field is a number in %; no unit string.

# annotated cases, reported one-nucleolus phenotype percent effect shown
# Macromolecule Sequence, System Name, one-nucleolus phenotype percent effect / %
data = [
    ("CUCCUCCCCUGCCUGGCCCAG [hsa-miR-6749-3p]", "MCF10A", -2.87),
    ("AACCACUUUCUUUGCUCAUCCA [hsa-miR-1255b-2-3p]", "MCF10A", 7.09),
]

## Input State one-nucleolus phenotype percent effect on MCF10A. Entry: AAUCACUAACCACACGGCCAGG [hsa-miR-34c-3p]
## Output -3.51

## Input State one-nucleolus phenotype percent effect on MCF10A. Entry: CCCUGCUGCCUUCACCUGCCAG [hsa-miR-6893-3p]
## Output -5.77

## Input State one-nucleolus phenotype percent effect on MCF10A. Entry: CCUGGGCAGCGUGUGGCUGAAGG [hsa-miR-3187-5p]
## Output -3.44

## Input State one-nucleolus phenotype percent effect on MCF10A. Entry: UAUUCAGGAAGGUGUUACUUAA [hsa-miR-506-5p]
## Output -9.8

## Input State one-nucleolus phenotype percent effect on MCF10A. Entry: UCACUGUUCAGACAGGCGGA [hsa-miR-1208]
## Output -21.6

## Input State one-nucleolus phenotype percent effect on MCF10A. Entry: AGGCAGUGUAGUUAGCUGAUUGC [hsa-miR-34c-5p]
## Output 38.8

## Input State one-nucleolus phenotype percent effect on MCF10A. Entry: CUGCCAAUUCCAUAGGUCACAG [hsa-miR-192-3p]
## Output 70.5

## Input State one-nucleolus phenotype percent effect on MCF10A. Entry: UUCUCCCACUACCAGGCUCCCA [hsa-miR-4713-5p]
## Output -12.1

## Input State one-nucleolus phenotype percent effect on MCF10A. Entry: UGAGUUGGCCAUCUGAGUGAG [hsa-miR-571]
## Output -7.45

====

Measured one-nucleolus phenotype percent effect values are reported for all entries that follow.
Tested on: MCF10A
Run Description: one-nucleolus phenotype percent effect (relative to siNT 0% and siNOL11 100%); higher = more cells with one nucleolus (ribosome biogenesis inhibition)
Measurement Context: 20 nM; 72 h
API: value field is a number in %; no unit string.

# annotated cases, reported one-nucleolus phenotype percent effect shown
# Macromolecule Sequence, System Name, one-nucleolus phenotype percent effect (%)
rows = [
    ("GUGGGUUGGGGCGGGCUCUG [hsa-miR-3940-5p]", "MCF10A", -5.1),
    ("AGGGGGAAAGUUCUAUAGUCC [hsa-miR-625-5p]", "MCF10A", 21.3),
    ("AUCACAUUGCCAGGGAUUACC [hsa-miR-23b-3p]", "MCF10A", 0.34),
    ("AACUAGUAAUGUUGGAUUAGGG [hsa-miR-3923]", "MCF10A", 43.2),
    ("UUCUCAAGAGGGAGGCAAUCAU [hsa-miR-514b-5p]", "MCF10A", -22.9),
    ("UCAACAAAAUCACUGAUGCUGGA [hsa-miR-3065-5p]", "MCF10A", -30.5),
    ("GGGGCGCGGCCGGAUCG [hsa-miR-3178]", "MCF10A", -32.2),
    ("AUCGUGCAUCCCUUUAGAGUGU [hsa-miR-517a-3p]", "MCF10A", 3.74),
]

## Input State one-nucleolus phenotype percent effect on MCF10A. Entry: CGCCCCUCCUGCCCCCACAG [hsa-miR-4749-3p]
## Output -18.4

## Input State one-nucleolus phenotype percent effect on MCF10A. Entry: ACAUCGCCCCACCUUCCCCAG [hsa-miR-6785-3p]
## Output -34.4

====

Measured nucleolar rRNA biogenesis percent inhibition values are reported for all entries that follow.
Tested on: HeLa
Run Description: nucleolar rRNA biogenesis percent inhibition (5-EU; siNT 0%, siPOLR1A 100%); higher = stronger inhibition of nucleolar rRNA biogenesis
Measurement Context: 20 nM; 72 h

# annotated cases, reported nucleolar rRNA biogenesis percent inhibition shown
# Macromolecule Sequence, System Name, Measurement
measured = [
    ("AAGGAGCUUACAAUCUAGCUGGG [hsa-miR-708-5p]", "HeLa", "48.6%"),
    ("CGGCGGGGACGGCGAUUGGUC [hsa-miR-1908-5p]", "HeLa", "68.5%"),
    ("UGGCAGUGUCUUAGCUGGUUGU [hsa-miR-34a-5p]", "HeLa", "37.7%"),
    ("UGCCUGUCUACACUUGCUGUGC [hsa-miR-214-5p]", "HeLa", "32%"),
    ("CAAUCAGCAAGUAUACUGCCCU [hsa-miR-34a-3p]", "HeLa", "-6.79%"),
]

Then there is this sequence:
## Input Consider the sequence AAAGGAGGAAAUAGGCAGGCCA [hsa-miR-3173-3p] and give its recorded nucleolar rRNA biogenesis percent inhibition.
## Output 25.3%

====

Measured one-nucleolus phenotype percent effect values are reported for all entries that follow.
System: MCF10A
Run Description: one-nucleolus phenotype percent effect (relative to siNT 0% and siNOL11 100%); higher = more cells with one nucleolus (ribosome biogenesis inhibition)
Measurement Context: 20 nM; 72 h
API: value field is a number in %; no unit string.

# Macromolecule Sequence, Unit Info, one-nucleolus phenotype percent effect
rows = [
    ("UAGGAUGGGGGUGAGAGGUG [hsa-miR-2392]", "%", -3.85),
    ("UCUGUGCCCCUACUUCCCAG [hsa-miR-6889-3p]", "%", -15.5),
    ("UGGGAAAGACAAACUCAGAGUU [hsa-miR-6733-5p]", "%", 5.71),
]

## Input Consider the sequence UCUCCCAACCCUUGUACCAGUG [hsa-miR-150-5p] and give its recorded one-nucleolus phenotype percent effect.
## Output -2.57

## Input Consider the sequence UGACCUGGGACUCGGACAGCUG [hsa-miR-3661] and give its recorded one-nucleolus phenotype percent effect.
## Output 35.2

## Input Consider the sequence AAAGUGCUUCUCUUUGGUGGGU [hsa-miR-520d-3p] and give its recorded one-nucleolus phenotype percent effect.
## Output -16.1

## Input Consider the sequence CAGCCCCACAGCCUCAGA [hsa-miR-4323] and give its recorded one-nucleolus phenotype percent effect.
## Output 2.83

## Input Consider the sequence CUGCCUGUUCUUCCACUCCAG [hsa-miR-6514-3p] and give its recorded one-nucleolus phenotype percent effect.
## Output 59.9

## Input Consider the sequence AAAGACCCAUUGAGGAGAAGGU [hsa-miR-3667-5p] and give its recorded one-nucleolus phenotype percent effect.
## Output 11.5

## Input Consider the sequence UGCGGGGCUAGGGCUAACAGCA [hsa-miR-744-5p] and give its recorded one-nucleolus phenotype percent effect.
## Output 53.9

## Input Consider the sequence UGAGGAGAUGCUGGGACUGA [hsa-miR-4784] and give its recorded one-nucleolus phenotype percent effect.
## Output -9

## Input Consider the sequence UCUCUGGGCCUGUGUCUUAGGC [hsa-miR-330-5p] and give its recorded one-nucleolus phenotype percent effect.
## Output 67.1

## Input Consider the sequence CUGCAGCCACUUGGGGAACUGGU [hsa-miR-7156-3p] and give its recorded one-nucleolus phenotype percent effect.
## Output 8.88

## Input Consider the sequence AGGUUACCCGAGCAACUUUGCAU [hsa-miR-409-5p] and give its recorded one-nucleolus phenotype percent effect.
## Output 42.3

## Input Consider the sequence GUGAAGGCCCGGCGGAGA [hsa-miR-6126] and give its recorded one-nucleolus phenotype percent effect.
## Output -11.8

====

System: MCF10A
Run Description: 5+ nucleoli phenotype percent effect (relative to siNT 0% and siKIF11 100%); higher = more cells with five or more nucleoli
Measurement Context: 20 nM; 72 h
Measured 5+ nucleoli phenotype percent effect values are reported for all entries that follow.
API: value field is a number in %; no unit string.

## Input Consider the sequence GGUGGGGGGUGUUGUUUU [hsa-miR-4472] and give its recorded 5+ nucleoli phenotype percent effect.
## Output 11.6

## Input Consider the sequence AAUGUGUAGCAAAAGACAGA [hsa-miR-511-3p] and give its recorded 5+ nucleoli phenotype percent effect.
## Output -40.6

## Input Consider the sequence UAGGGGUGGGGGAAUUCAGGGGUGU [hsa-miR-6782-5p] and give its recorded 5+ nucleoli phenotype percent effect.
## Output 1.01

## Input Consider the sequence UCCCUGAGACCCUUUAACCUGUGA [hsa-miR-125a-5p] and give its recorded 5+ nucleoli phenotype percent effect.
## Output 28.8

## Input Consider the sequence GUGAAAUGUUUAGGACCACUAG [hsa-miR-203a] and give its recorded 5+ nucleoli phenotype percent effect.
## Output 3.03

## Input Consider the sequence AACACUGGCCUUGCUAUCCCCA [hsa-miR-6757-3p] and give its recorded 5+ nucleoli phenotype percent effect.
## Output -35
